Measured values drawn from patent US20250304650A1 for this set.

- subject of test: feline FcRn (FCN-F82W3, Acrobiosystems) (feline)
- experimental details: SPR Carterra, IgG coupled, pH 7.4

- binder: "anti-NGF feline IgG1a, Fc variant T286E, S428R (antibody, part only; not given: anti-NGF variable domains, not shown: another chain or arm of the molecule; small tags and cut ends) Fc: PPEMLGGPSIFIFPPKPKDTLSISRTPEVTCLVVDLGPDDSDVQITWFVDNTQVYEAKTSPREEQFNSTYRVVSVLPILHQDWLKGKEFKCKVNSKSLPSPIERTISKAKGQPHEPQVYVLPPAQEELSRNKVSVTCLIKSFHPPDIAVEWEITGQPEPENNYRTTPPQLDSDGTYFVYSKLSVDRSHWQRGNTYTCSVRHEALHSHHTQKSLTQSPGK"
  measurement unit: "M⁻¹ s⁻¹"
  kon: "9.17e+06"
